- tgt: human H4 receptor (Homo sapiens (Human), UniProt Q9H3N8)
- Sequence (Q9H3N8 whole entry): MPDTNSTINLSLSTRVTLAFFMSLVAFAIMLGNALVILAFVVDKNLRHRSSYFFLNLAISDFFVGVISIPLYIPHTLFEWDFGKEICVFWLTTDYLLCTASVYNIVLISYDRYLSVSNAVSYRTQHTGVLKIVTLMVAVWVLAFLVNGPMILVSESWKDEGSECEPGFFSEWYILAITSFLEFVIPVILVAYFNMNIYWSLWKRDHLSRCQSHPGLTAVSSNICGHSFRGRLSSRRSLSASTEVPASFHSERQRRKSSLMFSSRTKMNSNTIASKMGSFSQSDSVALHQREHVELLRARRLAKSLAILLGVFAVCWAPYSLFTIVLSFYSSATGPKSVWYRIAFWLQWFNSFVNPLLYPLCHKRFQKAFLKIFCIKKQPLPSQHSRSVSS
- protocol_summary: cell-based
- Assay type: cell-based
- assay_setup: apparent pA2 from Schild plot; antagonism of histamine inhibition of forskolin-stimulated cAMP; read-out: pA2 (converted)
Structures can show the parent of a compound that is named as a salt.
Where Kb equals or exceeds 30 nM, the correct label is label 1; where it does not, the label is label 0.

Query string: Check the entry c1nnc(NC2CC3CCC2C3)cc1N1CCCNCC1 (stereo not shown) : does Kb equal or exceed 30 nM?
Result string: label 1

Query string: Check the entry CN[C@@H]1CCN(c2ccnc(NCC3CC3)c2)C1 [Example 4, ditrifluoroacetate] : does Kb equal or exceed 30 nM?
Result string: label 0

Query string: Check the entry CN[C@@H]1CCN(c2ccnc(NCC34CC5CC(CC(C5)C3)C4)c2)C1 : does Kb equal or exceed 30 nM?
Result string: label 0

Query string: Check the entry CN[C@H]1CCN(c2cnnc(NC3CCCC3)c2)C1 : does Kb equal or exceed 30 nM?
Result string: label 1

Query string: Check the entry CC(C)CNc1cc(N2CC[C@@H](N)C2)ccn1 [Example 20, dihydrochloride] : does Kb equal or exceed 30 nM?
Result string: label 0

Query string: Check the entry CN[C@@H]1CCN(c2ccnc(NC[C@H]3CC[C@H]4C[C@@H]3C4(C)C)c2)C1 : does Kb equal or exceed 30 nM?
Result string: label 1

Query string: Check the entry CN[C@@H]1CCN(c2ccnc(NC[C@H]3CC[C@H]4C[C@@H]3C4(C)C)n2)C1 : does Kb equal or exceed 30 nM?
Result string: label 0

Query string: Check the entry CNC1CN(c2cnnc(NC3CC4CCC3C4)c2)C1 (stereo not shown) : does Kb equal or exceed 30 nM?
Result string: label 1

Query string: Check the entry CCCNc1cc(N2CC[C@@H](NC)C2)ccn1 [Example 3, dihydrochloride] : does Kb equal or exceed 30 nM?
Result string: label 0

Query string: Check the entry CN[C@@H]1CCN(c2cnnc(NCC(C)(C)C)c2)C1 : does Kb equal or exceed 30 nM?
Result string: label 0

====

Consider the following molecules; for each one, report its pKi.
- tgt: human H4 receptor (Homo sapiens (Human), UniProt Q9H3N8)
- protocol_summary: Binding assay on recombinant human histamine H4 receptor ([3H]histamine competition, SK-N-MC cell membranes)
- assay_setup: membranes harvested with 96 well Brandel system; [3H]histamine 10 nM; average of results; read-out: Brandel Ki
Where a name gives a salt, the structure may show the parent alone.
In plain terms, pKi is the concentration in mol/L turned into minus its base-10 logarithm.

Query string: What value of measured pKi is listed for c1cc(N2CCNCC2)nc(NC2CC3CCC2C3)n1 (centres unmarked) ?
Result string: 6.62

Query string: What value of measured pKi is listed for CN1CCN(c2ccnc(NC3CC4CCC3C4)n2)CC1 (centres unmarked) ?
Result string: 7.50

Query string: What value of measured pKi is listed for CN[C@@H]1CCN(c2cnnc(NCC3CC3)c2)C1 ?
Result string: 7.62

Query string: What value of measured pKi is listed for N[C@@H]1CCN(c2ccnc(NC3CCOCC3)n2)C1 ?
Result string: 7.37

Query string: What value of measured pKi is listed for CC(C)CNc1cc(N2CCNCC2)ccn1 [Example 19, dihydrochloride] ?
Result string: 7.34

====

- tgt: human H4 receptor (Homo sapiens (Human), UniProt Q9H3N8)
- protocol_summary: Binding assay on recombinant human histamine H4 receptor ([3H]histamine competition, SK-N-MC cell membranes)
- assay_setup: membranes harvested with 96 well Brandel system; [3H]histamine 10 nM; average of results; read-out: Brandel Ki
Counter-ions that a name gives are not always drawn.
measured_quantity: pKi
In plain terms, pKi is the concentration in mol/L turned into minus its base-10 logarithm.

Query string: Item: CCCCNc1nccc(N2CC[C@@H](NC)C2)n1 Test system: human H4 receptor (Homo sapiens (Human), UniProt Q9H3N8) Read-out: pKi Value: ?
Result string: 8.70

Query string: Item: CC(C)CNc1nccc(N2CCNCC2)n1 Test system: human H4 receptor (Homo sapiens (Human), UniProt Q9H3N8) Read-out: pKi Value: ?
Result string: 7.33

Query string: Item: CC(C)CNc1cc(N2CCN(C)CC2)ccn1 Test system: human H4 receptor (Homo sapiens (Human), UniProt Q9H3N8) Read-out: pKi Value: ?
Result string: 7.29

Query string: Item: CN[C@@H]1CCN(c2cnnc(N[C@H]3C[C@H]4C[C@@H]([C@@H]3C)C4(C)C)c2)C1 Test system: human H4 receptor (Homo sapiens (Human), UniProt Q9H3N8) Read-out: pKi Value: ?
Result string: 8.23

Query string: Item: CC(C)CNc1cc(N2CC[C@@H](N)C2)ccn1 [Example 20, dihydrochloride] Test system: human H4 receptor (Homo sapiens (Human), UniProt Q9H3N8) Read-out: pKi Value: ?
Result string: 8.46

Query string: Item: CN[C@@H]1CCN(c2ccnc(N[C@H]3C[C@H]4C[C@@H]([C@@H]3C)C4(C)C)c2)C1 Test system: human H4 receptor (Homo sapiens (Human), UniProt Q9H3N8) Read-out: pKi Value: ?
Result string: 9.00

Query string: Item: CN[C@@H]1CCN(c2cnnc(NC3CCCCC3)c2)C1 Test system: human H4 receptor (Homo sapiens (Human), UniProt Q9H3N8) Read-out: pKi Value: ?
Result string: 8.32

Query string: Item: CC(C)CNc1nccc(N2CC(N)C2)n1 Test system: human H4 receptor (Homo sapiens (Human), UniProt Q9H3N8) Read-out: pKi Value: ?
Result string: 7.58

Query string: Item: CC(C)CNc1nccc(N2CCN(C)CC2)n1 Test system: human H4 receptor (Homo sapiens (Human), UniProt Q9H3N8) Read-out: pKi Value: ?
Result string: 7.16

Query string: Item: CC(C)Nc1nccc(N2CC(N)C2)n1 Test system: human H4 receptor (Homo sapiens (Human), UniProt Q9H3N8) Read-out: pKi Value: ?
Result string: 7.16
